test system: lymphocyte progenitors (LymP); assay: MLTA, LymP: concentration-response and QSP model fit; type: cell-based, human; conditions: Homo sapiens, Lymphocyte, 144 h; parameter from QSP model fitting; read-out: Emax_drug_LymP

compound	Emax / %
O=C1CCC(N2C(=O)c3ccccc3C2=O)C(=O)N1 (stereo not drawn) [thalidomide]	0.0064
CC(C)C[C@H](NC(=O)[C@H](Cc1ccccc1)NC(=O)c1cnccn1)B(O)O	0.16
CN(C)C(=O)c1cc2cnc(Nc3ccc(N4CCNCC4)cn3)nc2n1C1CCCC1	0.032
CC(=O)O[C@@]12CO[C@@H]1C[C@H](O)[C@@]1(C)C(=O)[C@H](O)C3=C(C)[C@@H](OC(=O)[C@H](O)[C@@H](NC(=O)OC(C)(C)C)c4ccccc4)C[C@@](O)([C@@H](OC(=O)c4ccccc4)[C@H]21)C3(C)C	0.16
CC(=O)O[C@H]1C(=O)[C@@]2(C)[C@H]([C@H](OC(=O)c3ccccc3)[C@]3(O)C[C@H](OC(=O)[C@H](O)[C@@H](NC(=O)c4ccccc4)c4ccccc4)C(C)=C1C3(C)C)[C@]1(OC(C)=O)CO[C@@H]1C[C@@H]2O	0.16
Cc1sc2c(c1C)C(c1ccc(Cl)cc1)=N[C@@H](CC(=O)Nc1ccc(O)cc1)c1nnc(C)n1-2	115
